Molecular target: extracellular domain (ECD) of IL-2Rβ (Homo sapiens, UniProt P14784)
Construct: Fc; purchased ACRObiosystems, Inc. ILB-H5253
Sequence (P14784 27-239): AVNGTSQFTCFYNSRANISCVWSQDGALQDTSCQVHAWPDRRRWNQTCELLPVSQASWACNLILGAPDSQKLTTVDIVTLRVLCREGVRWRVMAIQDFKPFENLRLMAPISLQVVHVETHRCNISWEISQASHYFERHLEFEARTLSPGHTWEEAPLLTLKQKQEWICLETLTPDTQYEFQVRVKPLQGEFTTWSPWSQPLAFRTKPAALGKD
Assay: Competitive binding of synthetic test peptides against phage clones on immobilized IL-2Rβ ECD
Conditions: phage clone of IL-2β family 2B
Experimental: Competitive binding assays were performed to characterize the IL-2R binding sites for certain IL-2Rβ and to IL-2Rγc ligands. […] Phage binding to the immobilized IL-2Rβ ECD was detected by staining with antibody against phage coat proteins (anti-phage Ab), staining with labeled secondary antibody against the anti-phage Ab, and scored by reading OD in the microtiter plate optical reader. […]
Endpoint Label: Competition with phage clone peptide SEQ ID NO: 83

1044 (RSCYYKRPRLWCSE) [Peptide 1044]    −
224 (DCSMWEGVELCW) [Peptide 224]    −
